- measured-target: TDP-43 (Homo sapiens, UniProt Q13148 1-414)
- Sequence (Q13148 whole entry): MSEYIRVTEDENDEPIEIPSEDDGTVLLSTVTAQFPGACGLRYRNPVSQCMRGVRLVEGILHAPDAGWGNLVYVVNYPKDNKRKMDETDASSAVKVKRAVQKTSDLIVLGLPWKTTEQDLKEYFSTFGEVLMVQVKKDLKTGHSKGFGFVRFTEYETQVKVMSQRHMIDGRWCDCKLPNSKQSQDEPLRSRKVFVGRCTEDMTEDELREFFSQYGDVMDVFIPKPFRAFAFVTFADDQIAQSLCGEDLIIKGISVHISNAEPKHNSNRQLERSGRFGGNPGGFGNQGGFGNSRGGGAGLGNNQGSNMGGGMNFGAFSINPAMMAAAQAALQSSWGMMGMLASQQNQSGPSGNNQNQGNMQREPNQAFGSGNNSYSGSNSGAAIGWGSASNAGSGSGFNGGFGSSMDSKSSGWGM
- test-protocol: RNA Bind-n-Seq with designed 260-mer pool; 25 mM Tris-HCl, 150 mM KCl, 3 mM MgCl2, BSA (printed 500 mg/mL), 20 units/mL SUPERase IN; pH not stated; 500 nM RNA pool, 1 h, 4 C; TDP-43 5, 50, 500 nM; high values mean tight binding
- details: protein: recombinant; tags: SBP (GST cleaved off with PreScission; pGEX-GST-SBP)
Over roughly 9,900 sequences, “r (bound/input frequency ratio)” has its median near 0.7; the highest 2% begin near 6.5. What follows is part of a selection rich in the highest values, with near analogues and random picks from the rest.
quantity: binding signal

Examples from the recorded data:
ENSMUSG00000029636.202|Wasf3|244:248 (ssRNA) RNA: GGGAGUUCUACAGUCCGACGAUCGCUUCGAUAUCCGCAUGCUAACCAAAUGGCGAUUCCAUAGUCCUGGCUGAGGCAGGGGCUCAAAGUCCAGUGUCUGCUUUGCAAUUCUGGAAGGACAGCUGCUUAUUUAAAUAAGUCUGUGAUAUCCGCAGGCUUGGGUUACAGGGAGGACCUUGCAGAGGGACCAGGACACUGCCUUCCCUUAGGUGCAUUAUUUACGUGGCCUGCAGCUCUUAAUAUCUCUCACUGUUUAUGAAAAGAAAGAUUCAGAUCCGGGGUGACAUACACACAGUUGACAGGGCUCUUGCGGUCGCACUAGUGUGGAAUUCUCGGGUGUCAAGG ... 0.996 R (bound/input frequency ratio)
ENSMUSG00000028439.157|Fam219a (ssRNA) RNA: GGGAGUUCUACAGUCCGACGAUCGCUUCGAUAUCCGCAUGCUAUAGCUCAAAGUCCAGGAGCCAGGCUUCCAGAAAGGCUCUUCAAGAGCAAGCUUAAGGAAAUACAGUGAGCCAAGUGGCUGUAUGAUAUGGUAUGGUAUGGUAUGGUAUGGUAUGGUAUGGUAUGCACAUGUGUGUGCAUGUGUGUGUGCCUGUGUGUGUGCGUGUGCGUGUGUGUAUGUGUGUGCGUGUGUGUGUGUGUGUGUUGUACCCGAGUGUGUGUUGAGCCUAUCUGUCCAGGGAACCAGAUUGGUGUCCGAGAUCUCUUGCGGUCGCACUAGUGUGGAAUUCUCGGGUGUCAAGG ... 7.39 R (bound/input frequency ratio)
ENSMUSG00000031028.612|Tub|38:42 (ssRNA) RNA: GGGAGUUCUACAGUCCGACGAUCGCUUCGAUAUCCGCAUGCUAUGAGCAGCUAGAGCAUUUGAGCAACCCAUGUAAUCUUACACAUUCCCUCCCUGUAAGAAGGCCUGUCAGAGCUUGCUGUAGGAGUUAGGGUAAAUGAAAGUUAGUCCUGGCUCUCAUCACCACCUUUCCUAGCUCAUCACUGUGCCUUCUUUCUUCCCUAAGAAAGACAAUGCACCCCUCUCUUCUGUUCUCCUGCCCCUUCGCCCCCACUGAGGUCCAGGUAGAGCAGAUGAGGCUGAAAUGUAGAGUGUUCUAUAGAGCUCUUGCGGUCGCACUAGUGUGGAAUUCUCGGGUGUCAAGG ... 1.48 R (bound/input frequency ratio)

Consider the following items and state reported binding signal for each.
1. ENSMUSG00000028439.112|Fam219a|120:124 (ssRNA) RNA: GGGAGUUCUACAGUCCGACGAUCGCUUCGAUAUCCGCAUGCUACAAAGGGAUACUGUCUCUCCAUUAGAUAACUCCUUCCACUGUCUCCCUCCCCCGCUUUCUUACUUUCUGAGGGUUGGGAAGGUAAGAUGGGCCUUAGAGAGAAGCCAGGUUUGGGGAUGCAUACACCUGUUCUCACCGGUCUCUAACCAGUGCAUCUGUCUCUCUGCCUCAUCCCCACACCGCCCUGCCACCCCCAGUCUUCUGUCUAUUGGUUCCAGGCUGGAAGCAAGAGAUAAGGCUGGCCUCCUGUGCCCCAUUGCCUCUUGCGGUCGCACUAGUGUGGAAUUCUCGGGUGUCAAGG
2. ENSMUSG00000058297.426|Spock2 (ssRNA) RNA: GGGAGUUCUACAGUCCGACGAUCGCUUCGAUAUCCGCAUGCUAGUGGCAGGCCCCAGGGGUCCAGAAGUUUGUCCCUCUCUAAAACGCUCCCCACCCCAUACUGCUUUUCACCCCACUGAGACCGAGUCCCACAAAGGUAGGCAGAACAGCUGUUCCUGGUGGGGCUGAAGGUUCCCAAGUAGCUUCUAGUUAAGCAAGCUUCGUGUUUCCUCAGGAGCAAGGUCACACAGGUCAGAUUAUUGUCGGUCCUGCGGGCCUCAUCCUUGAAUAAGCUGCCUGCCCAGUUCCUCCAUCCGUGUUCCCUCUUGCGGUCGCACUAGUGUGGAAUUCUCGGGUGUCAAGG
3. ENSMUSG00000090935.28|Synj2bp|72:76;256:260 (ssRNA) RNA: GGGAGUUCUACAGUCCGACGAUCGCUUCGAUAUCCGCAUGCUAGUAAAUGGCCAAGAUCUGAAGAACCUGCUGCACCAAGAUGCUGUAGACCUCUUCCGUAAUGCGGGAUGUGCACACACCCUGAGAGUACAGCACAGGUUACCAGUGCAGAAUGGACCUAUAGUACAUCGAGGUGAAGGAGAGCCAAGUGGAGUUCCUGUAGCUAUGGUGCUGCUACCAGUGUUUGCCCUCACCAUGGUAGCAGUUUGGGCCUUCGUGAGAUACCGAAAGCAGCUUUGAAAUGCUUGCUGUCUUCCACACACCUCUUGCGGUCGCACUAGUGUGGAAUUCUCGGGUGUCAAGG
4. ENSMUSG00000028439.156|Fam219a (ssRNA) RNA: GGGAGUUCUACAGUCCGACGAUCGCUUCGAUAUCCGCAUGCUAUCACCCUAGCUCAAAGUCCAGGAGCCAGGCUUCCAGAAAGGCUCUUCAAGAGCAAGCUUAAGGAAAUACAGUGAGCCAAGUGGCUGUAUGAUAUGGUAUGGUAUGGUAUGGUAUGGUAUGGUAUGGUAUGCACAUGUGUGUGCAUGUGUGUGUGCCUGUGUGUGUGCGUGUGCGUGUGUGUAUGUGUGUGCGUGUGUGUGUGUGUGUGUUGUACCCGAGUGUGUGUUGAGCCUAUCUGUCCAGGGAACCAGAUUGGUGUCCUCUUGCGGUCGCACUAGUGUGGAAUUCUCGGGUGUCAAGG

["0.515 R (bound/input frequency ratio)", "0.272 R (bound/input frequency ratio)", "1.49 R (bound/input frequency ratio)", "6.74 R (bound/input frequency ratio)"]

The measured values listed here are drawn from paper PMC12864922.
